Measured kobs /[I]* (approximate second-order inactivation constant) values are reported for all entries that follow.
molecular target: Cathepsin L from rat liver (Rattus norvegicus, UniProt P07154); construct: Cathepsin L from rat liver; from tissue; host or cells: rat liver; experiment: Inhibition of cathepsin L, Z-Phe-Arg-AMC fluorescence progress curves; type: biochemical; details: values marked *; 25° C., pH 6.2
Sequence (P07154 114-288 limits assumed): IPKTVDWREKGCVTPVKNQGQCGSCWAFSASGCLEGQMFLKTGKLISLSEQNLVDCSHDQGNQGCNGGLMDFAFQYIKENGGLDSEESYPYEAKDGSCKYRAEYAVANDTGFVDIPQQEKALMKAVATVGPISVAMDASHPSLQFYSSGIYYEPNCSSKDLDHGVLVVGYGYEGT
Sequence (P07154 291-334 limits assumed): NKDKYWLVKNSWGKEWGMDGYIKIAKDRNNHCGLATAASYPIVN

>>> meas_value("CS(=O)(=O)/C=C/[C@H](CCc1ccccc1)NC(=O)[C@H](Cc1ccccc1)NC(=O)N1CCOCC1")
"8700 M⁻¹ s⁻¹"

[in] Give reported kobs /[I]* (approximate second-order inactivation constant) value for O=C(NCCCC[C@@H](/C=C/S(=O)(=O)c1ccccc1)NC(=O)[C@H](Cc1ccccc1)NC(=O)N1CCOCC1)c1ccccc1
[out] 210,000 M^-1 sec^-1

[in] Output measured kobs /[I]* (approximate second-order inactivation constant) for this item: O=C(N[C@@H](/C=C/S(=O)(=O)c1ccccc1)CCc1ccccc1)C(Cc1ccccc1)NC(=O)N1CCOCC1 (stereo partly shown)
[out] 4,500 M^-1 sec^-1

[in] // fetch kobs /[I]* (approximate second-order inactivation constant) given entry CC(C)C[C@H](NC(=O)N1CCOCC1)C(=O)N[C@H](/C=C/S(=O)(=O)c1ccccc1)CCc1ccccc1
[out] 28,700 M^-1 sec^-1

[in] Note kobs /[I]* (approximate second-order inactivation constant) for the compound shown: O=C(N[C@H](/C=C/S(=O)(=O)c1ccccc1)CCc1ccccc1)C(Cc1cc(I)c(O)c(I)c1)NC(=O)N1CCOCC1 (stereo partly shown)
[out] 190,000 M^-1 sec^-1

[in] Read the entry Br.NCCCC[C@@H](/C=C/S(=O)(=O)c1ccccc1)NC(=O)[C@H](Cc1ccccc1)NC(=O)N1CCOCC1 and write its reported kobs /[I]* (approximate second-order inactivation constant).
[out] 220,000 M^-1 sec^-1

[in] State its kobs /[I]* (approximate second-order inactivation constant) for this compound: O=C(N[C@H](/C=C/S(=O)(=O)c1ccccc1)CCc1ccccc1)C(Cc1ccccc1)NC(=O)N1CCOCC1 (stereo partly shown)
[out] 260,000 M^-1 sec^-1

---

target: Cathepsin L from rat liver (Rattus norvegicus, UniProt P07154); construct: Cathepsin L from rat liver; from tissue; host or cells: rat liver; assay: Inhibition of cathepsin L, Z-Phe-Arg-AMC fluorescence progress curves; type: biochemical
The molecules listed here are annotated with their kirr.
Expressed in s⁻¹, but write only the number.

Would you please look over these solved cases?
>>> meas_value("Br.NCCCC[C@@H](/C=C/S(=O)(=O)c1ccccc1)NC(=O)[C@H](Cc1ccccc1)NC(=O)N1CCOCC1")
0.16
>>> meas_value("O=C(N[C@H](/C=C/S(=O)(=O)c1ccccc1)CCc1ccccc1)C(Cc1ccccc1)NC(=O)N1CCOCC1 (stereo partly drawn)")
0.24

// next entry
[in] Note down kirr recorded for Br.CCOC(=O)/C=C/[C@H](CCCNC(=N)N)NC(=O)[C@H](Cc1ccccc1)NC(=O)N1CCOCC1
[out] 0.18

---

target: cruzain, from T. cruzi (Trypanosoma cruzi, UniProt P25779); experiment: Inhibition of cruzain, as for cathepsin L; type: biochemical; conditions: values without asterisk
Sequence (P25779 123-337 limits assumed): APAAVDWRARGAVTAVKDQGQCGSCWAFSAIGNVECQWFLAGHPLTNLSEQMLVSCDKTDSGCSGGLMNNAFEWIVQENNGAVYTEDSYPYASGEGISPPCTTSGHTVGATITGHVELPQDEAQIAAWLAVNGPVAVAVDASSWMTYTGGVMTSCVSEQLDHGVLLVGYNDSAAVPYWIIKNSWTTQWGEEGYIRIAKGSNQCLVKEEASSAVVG
parameter: k/KI (kirr/KI)

Below are worked cases with known answers.
>>> meas_value("CSCC[C@@H](/C=C/S(=O)(=O)c1ccccc1)NC(=O)[C@H](Cc1ccccc1)NC(=O)N1CCOCC1 [Mu-Phe-MetVSPh]")
"111,000 M^-1 sec^-1"
>>> meas_value("O=C(N[C@H](/C=C/S(=O)(=O)c1ccc2ccccc2c1)CCc1ccccc1)[C@H](Cc1ccccc1)NC(=O)N1CCOCC1 [Mu-Phe-HphVSNp]")
"740,000 M^-1 sec^-1"

[in] Please list k/KI (kirr/KI) recorded for the compound O=C(N[C@H](/C=C/S(=O)(=O)c1ccc2ccccc2c1)CCc1ccccc1)C(Cc1ccc2ccccc2c1)NC(=O)N1CCOCC1 (stereo partly shown) [Mu-Np-HphVSNp]
[out] 1,770,000 M^-1 sec^-1

[in] Give the value of k/KI (kirr/KI) reported for the following: CCCC[C@@H](/C=C/S(=O)(=O)c1ccccc1)NC(=O)[C@H](CC(C)C)NC(=O)[C@H](CC(C)C)NC(C)=O [Ac-Leu-Leu-NleVSPh]
[out] 133,000 M^-1 sec^-1

[in] Item CC(=O)N[C@@H](Cc1ccc(O)cc1)C(=O)N[C@H](C(=O)N[C@@H](C)C(=O)NC(/C=C/S(=O)(=O)c1ccccc1)CC(=O)O)C(C)C (stereo partly drawn) [Ac-Tyr-Val-Ala-AspVSPh] : provide k/KI (kirr/KI)
[out] 0 M⁻¹ s⁻¹

[in] Supply reported k/KI (kirr/KI) belonging to this compound: CCCC[C@@H](/C=C/S(=O)(=O)c1ccccc1)NC(=O)[C@H](Cc1ccccc1)NC(=O)N1CCOCC1 [Mu-Phe-NleVSPh]
[out] 77,000 M^-1 sec^-1

[in] State its k/KI (kirr/KI): O=C(NCCCC[C@@H](/C=C/S(=O)(=O)c1ccccc1)NC(=O)[C@H](Cc1ccccc1)NC(=O)N1CCOCC1)OCc1ccccc1 [Mu-Phe-Lys(Z)VSPh]
[out] 44,500 M^-1 sec^-1

---

# k/KI (kirr/KI) per record follows
biological target: Cathepsin L from rat liver (Rattus norvegicus, UniProt P07154); construct: Cathepsin L from rat liver; from tissue; host or cells: rat liver; assay: Inhibition of cathepsin L, Z-Phe-Arg-AMC fluorescence progress curves; type: biochemical; settings: values without asterisk; 25° C., pH 6.2
Quick reminder: number only, in M⁻¹ s⁻¹, skip the unit.

Worked set:
>>> meas_value("Br.CCOC(=O)/C=C/[C@H](CCCCN)NC(=O)[C@H](Cc1ccccc1)NC(=O)N1CCOCC1")
3500
>>> meas_value("CC(=O)N[C@@H](Cc1ccc(O)cc1)C(=O)N[C@H](C(=O)N[C@@H](C)C(=O)NC(/C=C/S(=O)(=O)c1ccccc1)CC(=O)O)C(C)C (stereo partly shown)")
0

Lab note: next compound to report on.
[in] Indicate the recorded k/KI (kirr/KI) value for this compound: CC(C)(C)OC(=O)C[C@@H](/C=C/S(C)(=O)=O)NC(=O)OC(C)(C)C
[out] 0

---

target: Cathepsin B from human placenta (Homo sapiens); construct: Cathepsin B from human placenta, obtained from Sigma; purchased Sigma; host or cells: human placenta (tissue); assay: Inhibition of cathepsin B, Z-Arg-Arg-AMC fluorescence progress curves; format: biochemical; conditions: values marked *; 25° C., pH 6.2
parameter: kobs /[I]* (approximate second-order inactivation constant)

>>> meas_value("O=C(NCCCC[C@@H](C=C(F)S(=O)(=O)c1ccccc1)NC(=O)[C@H](Cc1ccccc1)NC(=O)N1CCOCC1)OCc1ccccc1 [Mu-Phe-Lys(Z)fVSPh]")
"2,000 M^-1 sec^-1"
>>> meas_value("Br.NCCCC[C@@H](/C=C/S(=O)(=O)c1ccccc1)NC(=O)[C@H](Cc1ccccc1)NC(=O)N1CCOCC1")
"11,300 M^-1 sec^-1"

Now, please, on to the next compound.
[in] Kindly indicate its recorded kobs /[I]* (approximate second-order inactivation constant). Item: O=C(N[C@H](/C=C/S(=O)(=O)c1ccc2ccccc2c1)CCc1ccccc1)C(Cc1ccc2ccccc2c1)NC(=O)N1CCOCC1 (stereo partly drawn)
[out] 184,000 M^-1 sec^-1

---

system: calpain; test: Inhibition (inactivation) of calpain, Suc-Leu-Tyr-AMC; type: biochemical; conditions: values marked * (or %); pH 7.5, 5 mM CaCl2, 25° C.
# reported kobs /[I]*; entries follow

[in] Tell me kobs /[I]* reported for Br.N=C(N)NCCC[C@@H](/C=C/S(=O)(=O)c1ccccc1)NC(=O)[C@H](Cc1ccccc1)NC(=O)N1CCOCC1
[out] < 50 M⁻¹ s⁻¹

[in] Provide kobs /[I]* value for the following compound: CC(C)C[C@H](NC(=O)OCc1ccccc1)C(=O)N[C@@H](CC(C)C)C(=O)N[C@H](/C=C/S(=O)(=O)c1ccccc1)Cc1ccc(O)cc1
[out] 36,400 M^-1 sec^-1

[in] Dear colleague, please send me the reported kobs /[I]* for CSCC[C@@H](/C=C/S(=O)(=O)c1ccccc1)NC(=O)[C@H](CC(C)C)NC(=O)[C@H](CC(C)C)NC(C)=O when you can.
[out] 5,600 M^-1 sec^-1

[in] For the compound Cl.N[C@H](/C=C/S(=O)(=O)c1ccccc1)Cc1ccccc1 , give its reported kobs /[I]*.
[out] < 50 M⁻¹ s⁻¹

---

biological target: Cathepsin L from rat liver (Rattus norvegicus); construct: Cathepsin L from rat liver; from tissue; host or cells: rat liver; assay: Inhibition of cathepsin L, Z-Phe-Arg-AMC fluorescence progress curves; assay type: biochemical; conditions: values without asterisk; 25° C., pH 6.2
parameter: k/KI (kirr/KI)

Solved cases (3 shown):
>>> meas_value("Br.CCOC(=O)/C=C/[C@H](CCCNC(=N)N)NC(=O)[C@H](Cc1ccccc1)NC(=O)N1CCOCC1 [Mu-Phe-ArgVEOEt.HBr]")
"56,900 M^-1 sec^-1"
>>> meas_value("CSCC[C@@H](/C=C/S(=O)(=O)c1ccccc1)NC(=O)[C@H](Cc1ccccc1)NC(=O)N1CCOCC1 [Mu-Phe-MetVSPh]")
"250,000 M^-1 sec^-1"
>>> meas_value("CC(C)C[C@H](NC(=O)N1CCOCC1)C(=O)N[C@H](/C=C/S(=O)(=O)c1ccccc1)CCc1ccccc1 [Mu-Leu-HphVSPh]")
"490,000 M^-1 sec^-1"

[in] Quote k/KI (kirr/KI) with test system Cathepsin L from rat liver (Rattus norvegicus) for O=C(N[C@H](/C=C/S(=O)(=O)c1ccccc1)CCc1ccccc1)C(Cc1ccccc1)NC(=O)N1CCOCC1 (stereo partly shown) [Mu-Phe-HphVSPh]
[out] 224,000 M^-1 sec^-1
